Reported IL-2, % of BMS, at 11.11111111 ug/mL is given for each of the following binders.
Measurement target: T1, human LAG3 expressed on cells (human, UniProt P18627 23-525)
T1 sequence (looked up): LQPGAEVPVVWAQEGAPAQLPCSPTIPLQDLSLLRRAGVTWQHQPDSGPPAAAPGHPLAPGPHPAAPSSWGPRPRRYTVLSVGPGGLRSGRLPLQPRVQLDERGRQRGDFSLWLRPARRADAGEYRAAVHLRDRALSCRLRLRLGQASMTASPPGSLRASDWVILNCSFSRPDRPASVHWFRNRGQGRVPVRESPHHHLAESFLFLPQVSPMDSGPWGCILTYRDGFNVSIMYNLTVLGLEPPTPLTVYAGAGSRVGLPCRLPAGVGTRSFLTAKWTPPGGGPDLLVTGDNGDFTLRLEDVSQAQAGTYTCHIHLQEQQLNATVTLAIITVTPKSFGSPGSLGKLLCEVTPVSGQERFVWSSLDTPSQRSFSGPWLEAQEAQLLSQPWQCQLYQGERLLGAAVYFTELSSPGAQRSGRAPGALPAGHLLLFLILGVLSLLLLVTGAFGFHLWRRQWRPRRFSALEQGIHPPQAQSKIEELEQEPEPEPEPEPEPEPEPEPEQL
Assay method text: cell-based or functional assay
I only need the number, in %, no unit after it.

>>> endpoint_value("combination of sdAbs 25 and 18 (other) VHH 1: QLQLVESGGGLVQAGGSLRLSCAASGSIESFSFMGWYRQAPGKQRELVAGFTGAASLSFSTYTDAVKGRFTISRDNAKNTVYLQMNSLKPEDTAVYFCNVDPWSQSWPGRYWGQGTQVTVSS VHH 2: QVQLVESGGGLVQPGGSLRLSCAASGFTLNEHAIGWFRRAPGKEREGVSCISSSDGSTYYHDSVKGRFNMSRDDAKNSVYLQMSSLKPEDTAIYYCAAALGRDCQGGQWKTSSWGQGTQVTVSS")
52.5

[Q] Bench note: what IL-2, % of BMS, at 11.11111111 ug/mL did sdAb No. 27 (VHH, Fc of the tested form not described; also called sdAb 27; not shown: Fc part implied by anti-human Fc capture and anti-human IgG Fc detection) VHH: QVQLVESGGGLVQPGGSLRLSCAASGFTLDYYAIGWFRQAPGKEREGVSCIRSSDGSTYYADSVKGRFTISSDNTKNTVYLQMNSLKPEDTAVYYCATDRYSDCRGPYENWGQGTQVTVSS show?
[A] 50

[Q] Name the reported IL-2, % of BMS, at 11.11111111 ug/mL value associated with the binder sdAb No. 18 (VHH, Fc of the tested form not described; also called sdAb 18; not shown: Fc part implied by anti-human Fc capture) VHH: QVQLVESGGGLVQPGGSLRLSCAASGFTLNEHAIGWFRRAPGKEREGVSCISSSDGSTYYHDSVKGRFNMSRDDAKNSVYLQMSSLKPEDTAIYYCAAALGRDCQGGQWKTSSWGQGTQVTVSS
[A] 45.5

From: patent US20230303690A1
